Field: cytotoxicity at 10 µM. Provide a value for each of the compounds that follow.
Assay: Toxicity liver stage against HepG2, at 10uM
Format: cell-based
Parameters: test concentration 10 uM, cell line HepG2-A16-CD81EGFP
Details: human, HepG2-A16-CD81EGFP cells; read-out: INHIBITION
Entry rule: numbers only, all in %.

In: Supply measured cytotoxicity at 10 µM of CC1CN(C(=O)c2ccnc(-n3cncn3)c2)c2ccccc2S1 (stereo not drawn) in your reply.
Out: -5.69

In: Consider the compound NC(CC1CCCC1)c1ccccc1 (stereo not drawn) and give its recorded cytotoxicity at 10 µM.
Out: 5.76

In: Name the recorded cytotoxicity at 10 µM of the item CCN1CC(C(=O)NC(C)(C)C)CC1=O (stereo not drawn) in your answer.
Out: -2.91

In: Using the record for Cc1nc(N(C)C)cc(C2(C)CCCNC2)n1 (stereo not drawn) , state its measured cytotoxicity at 10 µM.
Out: 2.05

In: Respond only with cytotoxicity at 10 µM recorded for CCc1cc(CNC(=O)c2cc(NC(=O)C(C)C)ccc2Cl)[nH]n1
Out: 9.36

In: Tell me its cytotoxicity at 10 µM given CO[C@@H]1CN(c2ccccc2)S(=O)(=O)[C@@]12CCN(CC1CC1)C2 as the entry.
Out: 1.84

In: Give the reported value of cytotoxicity at 10 µM for this record: O=C1CCCN1C1CCCN(CCn2cc(Cl)cn2)C1 (stereo not drawn)
Out: -0.626

In: Name the recorded cytotoxicity at 10 µM of the item CCOc1ccc(N(CCC#N)C(=O)c2ccc(SC)nc2)cc1 in your answer.
Out: 5.93

src = ChEMBL document CHEMBL4513216
